- ASSAY_DETAILS: folding stability dG unfold (combined trypsin and chymotrypsin); higher = more stable
// n strictly below 1 kcal/mol in folding stability dG unfold; y otherwise

>>> discrete_label("SALWVIKDTIKPPNGKKRKISIAIPNDGLYVWFNGGSFPIPLKEIKKIMENFPGYQIDDIEIMPLDELKSAG [r14_336_TrROS]")
"n"
>>> discrete_label("SAGGDIKFEIGLELLPDGILVIRGSVEVRMGGQSVTYEFIIIVKIKPIPPPPPPPKPKYNPEDGKWKSAGGS [r8_269_TrROS]")
"y"
>>> discrete_label("SAGGSAGGEKVEKKEVKVELKIVIVVSEELREMSEEELEELLKELAAKLPGVKEVKIEILPLPESAGGSAGG [r6_710_TrROS_Hall]")
"y"
>>> discrete_label("SAGGSAGGPPPLIVTIKLEHKREKPNGEPEKRKHEIIVDAPNEQADKLAKKMPPDNVEDVEIAKSAGGSAGG [r6_985_TrROS]")
"n"
>>> discrete_label("SAGVVVERTVTRTVPKDSATKEKIIEEIKASMPGMKVKEVEVLSETPLPDGSIVVTVKLTIERPPDVLESAG [r5_682_JUSTAS]")
"y"
>>> discrete_label("SAGGSAGGSKPEPVKPVKLKVKLPGGEYEVEAVELPKGVVLVRNPADNSLAVITPDRLVVLPLSAGGSAGGS [r12_737_TrMRF]")
"n"
>>> discrete_label("SAGGSAGGSAGGGKLRIKLYHPETGKISEIEVEVPDKPLEEVLEELEKELGVEVVDASLESAGGSAGGSAGG [r7_590_TrMRF]")
"y"

----------
- ASSAY_DETAILS: folding stability dG unfold from chymotrypsin proteolysis; higher = more stable
Below, each entry is listed alongside its reported folding stability dG unfold.
ASSAY_METRIC: folding stability dG unfold (kcal/mol)

>>> value("SAGGMKKVKALVVANPFDPNKYKVFVKAEEEEKVFEFDPNNPEKIIEELEKLLPEDYKLDEIVFESGASAGG [r13_519_TrMRF]")
2.12
>>> value("SAGGSAGGSAEPPEPEVVAVTVEITEEDGELTITVTNEDTGEKYTFTLKNVEVKPGDTLLIRSAGGSAGGSA [r18_89_TrROS_Hall]")
1.77
>>> value("SAGGSAGGTLKELIDNITRVDPENGKQRMRIPGGAEIEINPEEGQIKIRYYHPGKPQEITLPLPSAGGSAGG [r6_793_TrROS]")
0.776
>>> value("SAGGSAKTIKIWIPVKGMTPEMLEEIARDILEELGMKVDIEPHPGDGYIEVTFKLPGKDIEIIIPWSAGGSA [r15_168_TrROS]")
3.04
>>> value("SAGGMTLITIEHPDGEVIEFELPGATEEEAEAIAEEIAKRHDPGKVKVTFEKVPEKGVDPTKPVAVKSAGGS [r8_167_JUSTAS]")
1.39
>>> value("SAGGSAGGSAGGSSTSLIGNSTVTVDPVYVTDTGERGFVISADVPPSVSEAVVEAHVASSAGGSAGGSAGGS [r10_531_JUSTAS]")
0.0382
>>> value("SAGMTFTVDVEEETFSETKVIRVPVEYDDPALVDVAAAEIREALGIPESESVTVEREPRRATITIVIPASAG [r14_804_JUSTAS]")
0.954

----------
- ASSAY_DETAILS: folding stability dG unfold from trypsin proteolysis; higher = more stable
ASSAY_METRIC: folding stability dG unfold (kcal/mol)

>>> value("SAGGSAGGSAGMYVITIKLPSGEVIKIKTDPKNPEEAIKKLEPQYPPAEFEVKEVPENEISAGGSAGGSAGG [r11_103_JUSTAS]")
0.633
>>> value("SAGGSAGGSAGGWDVEIEPFPDGFIFITAEGPNGRKLVIVVMVVPEGKLMYMIVPLDDLSAGGSAGGSAGGS [r10_140_TrROS]")
2.35
>>> value("SAGGSAEVELVKVEVNPDGPYVKATFRIPGGGDVAVLVFDPDRPNTARLIVRPPNNEPIAEIELPLSAGGSA [r15_974_TrMRF]")
1.52
>>> value("SAGGSAGGSAGAYRVEVNVELTPEAREAFLKNPELPADAEIPVVVSGRVEPVPLGPEGVLSAGGSAGGSAGG [r17_194_TrMRF]")
-0.58
>>> value("SAGGSMRFKIEDINIGIIPHPPGWLLIPITVKVKFEEPDPDNGEPKTVEHEFPIMIMMPKDDLDDLSAGGSA [r2_184_TrROS]")
2.01
>>> value("SPPETETYPIPNPEDGKPLMDITIERNPENGNWKVEIYWPGGKKKEVEFPPNETIPIDDLPPGFWVTITRSA [r9_1150_TrROS]")
0.532
>>> value("SAGGGTRTINFDSPEDAEDAIEDWPDWDKVTISVPSNGEPQSIPLKIKPPPPPKYKRDENGKPEPEPDSAGG [r13_183_TrROS]")
2.08
>>> value("SAGGSAGGMKLTLRIEAPREEVERLAKEFEAQGIKVTVKPRPDGRVELTLEIDLPDTDKSLFDPSAGGSAGG [r6_8_TrMRF]")
2.49
>>> value("SAGGMTKTVTVTIEIDVPPGVTVDELIEKLKELAEKLGLTVKVTSVTVEEVDGKLVVTVEVEIEPPEPSAGG [r13_351_TrROS_Hall]")
2.58
>>> value("SAGGSAGGEEIAKKLGIEKAEIVEVKDNKITLKVKLKNGEELKIELYIDKKTKEIKIVKIEKVPSAGGSAGG [r6_526_TrROS_Hall]")
2.37
>>> value("SAGGSAGGSAGGKKPKVKVIKLTLTVTKLTEKDGKLTLEKKTITLTAVIDPETGKIHLLSAGGSAGGSAGGS [r10_533_TrROS_Hall]")
3.2
>>> value("SAGPPEQKIKIKWYPPDDGQPQEIPGPVDDIKDILDKLGWPVTNIETDPDDNEVEIWVPFPNWWLHIKISAG [r5_521_TrROS]")
0.884
>>> value("SAGGSMKIVKIEKIDLAKLKPGDIIEVKLENGEIYRIRIEKNEDGKYTVYIYNKNGELVEEFEFDVSAGGSA [r2_323_TrROS_Hall]")
2.27
>>> value("SAGGLEEKILEAVKNMSPEEPVVEREVELPDGKLKVTVTRDGLPYTVTITRTNPDGTTTTTTTTILLSAGGS [r16_642_JUSTAS]")
2.46

----------
- ASSAY_DETAILS: folding stability dG unfold from chymotrypsin proteolysis; higher = more stable
ASSAY_METRIC: folding stability dG unfold

>>> value("SAGGMVIVFPAPKDISPDELRELIEAEVGPLAEELGLTEASIPIAKVEELPEGSRRVVAVIELRFDGSAGGS [r8_184_TrMRF]")
"0.332 kcal/mol"
>>> value("SAGGSKKKIYKIKIKIEVINEETGEKKTVEIEIEAESLEEALAAIAKALLPEGQTVKIVDIEIEEVSAGGSA [r2_320_TrROS_Hall]")
"3.89 kcal/mol"
>>> value("SAGGSAGGSAGKPTLKLVLKFDSPEQAKAAAEALAKAGYKVKVELKEYPDGLYLVVTVEPSAGGSAGGSAGG [r11_677_TrROS_Hall]")
"4.41 kcal/mol"
>>> value("SAGGMKITTKDGSTITVETEPGKVTITIKPPGDGSTTTLPFPAPSEEEGIEAAIKKIEEEGNVEEIELSAGG [r13_579_JUSTAS]")
"0.591 kcal/mol"
>>> value("SAGGSAGGSAGGSSMSSGPGRLSITTSTVDTGSFFKPGGEVEGSKTTTVTVTTLLPPSTPSAGGSAGGSAGG [r7_614_JUSTAS]")
"1.27 kcal/mol"
>>> value("SAGGSAGGPKEKKWYVMVHITWRDDGKERPRHFMFKSPEQVIEALEEQLPPDNIEIDVAVFPYKSAGGSAGG [r6_114_TrROS]")
"2.95 kcal/mol"
>>> value("SAGGSAGGKSPEDRQRENMKPVPPIEVVEIRIPIPPGMPIDQAKNIASNLMEHLGVDYVRIEITSAGGSAGG [r6_517_TrROS]")
"-0.478 kcal/mol"
>>> value("SAGGSAGGSAGGSKTVLLKVNGKLVLKELKVEVELEAEPETTTTTTTTTTLKPGETKTLSAGGSAGGSAGGS [r4_215_TrROS_Hall]")
"0.397 kcal/mol"
>>> value("SAGGSAGGMKVTLTPVSGEKYEIEVESEEEAKEKVEKLAKKLGIPGEVKVTIEKGDKTYELTIISAGGSAGG [r6_532_JUSTAS]")
"2.5 kcal/mol"
>>> value("SAGGSAGGSAGGPMYTVHTETFTTLEPGAGKRIVTTRTTNPATGATATTTTVIPLEPEALSAGGSAGGSAGG [r17_153_JUSTAS]")
"-0.555 kcal/mol"
>>> value("SAPKRYYIKIEIYDNGKKQEITIPIGATIKNPGGKEYTYPVDSPEDLEEALNDLFPPGFPIKIDDVHPPSAG [r14_41_TrROS]")
"1.21 kcal/mol"
>>> value("SAGGSAGGSAGAPSAPRSVPEVRLLNIDIPASADDPESVELARRLARAALENDAVVVINESAGGSAGGSAGG [r11_519_TrMRF]")
"0.826 kcal/mol"
>>> value("SAGGMIVLEFPDGKIVFVEPVSEFTTPDGKKVRLVKVIVTDPLTGKSTIIEREVLPGGGVKEKVTPESAGGS [r16_651_JUSTAS]")
"1.32 kcal/mol"
>>> value("SAGGSAGGSAGGEKKKIAKKIKEELEKKGIKVKKVETSEDYIYITFEDGSKKKIKIDKGSAGGSAGGSAGGS [r10_169_TrMRF]")
"1.6 kcal/mol"
